- System: SN12C renal
- test-summary: NCI tumour cell line growth inhibition, 48 h
outcome-measure: GI50

Memo: COc1ccc(-c2nn3ncccc3c2-c2ccnc(Nc3ccc(F)c(F)c3)n2)cc1 , reported GI50: 10.4 µM

Memo: Cc1cc[c]([Sb]2[O]C(CO)C(C(O)C(O)C(=O)O)[O]2)cc1 (configuration not stated) , reported GI50: 51.9 µM

Memo: C/C(=C1\C(=O)Nc2ccccc21)c1cccc(/C(C)=C2/C(=O)Nc3ccccc32)n1 , reported GI50: 15.6 µM

Memo: CC[O-].CC[O-].[O-]c1ccccc1C=NC12CC3CC(CC(C3)C1)C2.[O-]c1ccccc1C=NC12CC3CC(CC(C3)C1)C2.[Ti+4] , reported GI50: 86.4 µM

Memo: O=C(Nc1ccccc1/C=C/c1n[nH]c2ccccc12)c1ccccc1 , reported GI50: 2 µM

Memo: COc1cc2c(cc1OCCCCCOc1ccc(-c3nc4ccccc4s3)cc1)N=C[C@@H]1CCCN1C2=O , reported GI50: 2.95 µM

Memo: Clc1ccc2c(NC3CCC(NC4CCCCC4)CC3)ccnc2c1 (configuration not stated) , reported GI50: 14.7 µM

###

Give TGI for every item shown.
- Tested on: NCI-H226 lung
- test-summary: NCI tumour cell line growth inhibition, 48 h
Non-standard residues stand in square brackets, D forms with d. Residues, ends and D or L forms follow the SMILES beside them. ξ: configuration not given here. Pen = CC(C)(S)[C@H](N)C(=O)O; ξL = CC(C)CC(N)C(=O)O

Recorded TGI for CN(C)c1ccc(-c2c(C#N)c(-c3ccccc3)n(NS(=O)(=O)c3ccccc3)c(=O)c2C#N)cc1 on NCI-H226 lung was > 100 µM

Recorded TGI for CN1CCN(CCCOC(=O)c2c3c(n4ccccc24)C(=O)c2ncccc2C3=O)CC1 on NCI-H226 lung was 1.08 µM

Recorded TGI for COc1ccc(C(O)C(c2ccc(OCc3ccccc3)cc2)c2ccc(OCc3ccccc3)cc2)cc1 (stereo unspecified) on NCI-H226 lung was > 100 µM

Recorded TGI for COc1ccc(Nc2nc3ccccc3nc2-c2cccs2)cc1OC on NCI-H226 lung was > 10 µM

Recorded TGI for CSC(=Nc1ccccc1)c1c(C)[nH]n(-c2ccccc2)c1=O on NCI-H226 lung was > 100 µM

Recorded TGI for Cn1c2ccccc2n2c(=O)c(-c3ccc(Cl)cc3)nnc12 on NCI-H226 lung was > 100 µM

Recorded TGI for O=c1c2ccccc2c(=O)n2n1-c1cccc(c1)CSSCc1cccc-2c1 on NCI-H226 lung was > 100 µM

Recorded TGI for CC[C@@H]1C(=O)N(C)c2cnc(Nc3ccc(C(=O)NC4CCC(N5CCN(CC6CC6)CC5)CC4)cc3OC)nc2N1C(C)C (stereo partly specified) on NCI-H226 lung was > 10 µM

Recorded TGI for C[N+](C)(N)Cc1nc(-c2ccc(Cl)cc2)no1 on NCI-H226 lung was > 100 µM

Recorded TGI for COC(=O)C12C(=O)CC3CCC1C32C(=O)OC (stereo unspecified) on NCI-H226 lung was > 100 µM

Recorded TGI for COc1cc2ncnc(Nc3cccc(Br)c3)c2cc1OC on NCI-H226 lung was 18.5 µM

Recorded TGI for CC(C)C(Sc1nc(-c2ccccc2)c(-c2ccccc2)[nH]1)C(=O)N/N=C/c1ccc(Cl)cc1 (stereo unspecified) on NCI-H226 lung was 41.5 µM

Recorded TGI for CSCC[C@H](NC(=O)C(CC(C)C)NC(=O)[C@H](Cc1c[nH]cn1)NC(=O)CNC(=O)[C@@H](NC(=O)[C@@H](C)NC(=O)[C@H](Cc1c[nH]c2ccccc12)NC(=O)[C@H](CCC(N)=O)NC(=O)[C@@H](N)CC(N)=O)C(C)(C)SC)C(N)=O (stereo partly specified) (H-NQW[dA][Pen](Me)GH[ξL]M-NH2) on NCI-H226 lung was > 100 µM

Recorded TGI for CCCCCOC(=O)c1c(C)[nH]c(/C=C2\N=C(c3ccc[nH]3)C=C2OC)c1C on NCI-H226 lung was 2.13 µM

Recorded TGI for CC1=C[C@H](C[C@]2(C)c3c(c4c(C)cccc4oc3=O)O[C@@H]2C)OC1=O on NCI-H226 lung was > 100 µM

Recorded TGI for CC(Nc1cccc(Cl)c1)c1ccncc1 (stereo unspecified) on NCI-H226 lung was > 100 µM

Recorded TGI for O=C1C2C3SC(c4cc5ccccc5cc43)C2C(=O)N1c1ccccc1 (stereo unspecified) on NCI-H226 lung was > 100 µM

Recorded TGI for COC(=O)[C@H](Cc1ccccc1)NC(=O)N(CCN(CCC#N)C(=O)N[C@H](C(=O)OC)C(C)C)c1ccccc1 on NCI-H226 lung was > 100 µM

Recorded TGI for Cc1c2ccccc2c(=O)n2c(-c3ccccn3)cccc12 on NCI-H226 lung was > 100 µM

Recorded TGI for CCOc1ccc2c(c1)[n+]([O-])c(C(N)=O)c(N)[n+]2[O-] on NCI-H226 lung was > 100 µM

Recorded TGI for Cc1cc[c]([Sb]2[O]C(CO)C(C(O)C(O)C(=O)O)[O]2)cc1 (stereo unspecified) on NCI-H226 lung was > 100 µM

Recorded TGI for COc1nc2ncc([C@@H](OC(C)=O)[C@@H](COC(C)=O)OC(C)=O)nc2c(=O)n1C on NCI-H226 lung was > 100 µM

Recorded TGI for C=C1C(=O)O[C@@H]2C[C@@]3(C)CCC[C@H](C)C3=C[C@H]12 (tested in a mixture with another compound) on NCI-H226 lung was 16.6 µM

Recorded TGI for Cc1ccccc1NC(=O)C(=O)C(C1OC(=O)c2ccccc21)[N+](=O)[O-] (stereo unspecified) on NCI-H226 lung was > 100 µM

Recorded TGI for N#Cc1cnc2ccc(NCc3cnc[nH]3)cc2c1Nc1ccc(F)c(Cl)c1 on NCI-H226 lung was > 100 µM

Recorded TGI for NCC(=O)N[C@H]1c2ccsc2/C(=N/O)[C@H]1O on NCI-H226 lung was > 100 µM

###

Give GI50 for every item shown.
- System: EKVX NSCLC
- test-summary: NCI tumour cell line growth inhibition, 48 h

Recorded GI50 for O=c1c2ccccc2c(=O)n2n1-c1cccc(c1)CSSCc1cccc-2c1 on EKVX NSCLC was > 100000 nM

Recorded GI50 for CN1CCN(c2cc(F)c(NC3=C(Cl)C(=O)c4ncccc4C3=O)c(F)c2)CC1 on EKVX NSCLC was 1700 nM

Recorded GI50 for CCn1c(-c2nonc2N)nc2cnc(Oc3cccc(NC(=O)c4ccc(OCCN5CCOCC5)cc4)c3)cc21 on EKVX NSCLC was 752 nM

Recorded GI50 for COc1cc(-c2csc(NC(=O)Nc3ccc(Cl)cc3)n2)cc(OC)c1OC on EKVX NSCLC was 2770 nM

Recorded GI50 for COc1cc2c(cc1OCCCCCOc1ccc(-c3nc4ccccc4s3)cc1)N=C[C@@H]1CCCN1C2=O on EKVX NSCLC was 5660 nM

Recorded GI50 for c1ccc2[nH]c(-c3ccc(Nc4nc(N5CCCC5)nc5[nH]ncc45)cc3)nc2c1 on EKVX NSCLC was 1450 nM

Recorded GI50 for COC1C(OC(=O)/C=C/C=C/C=C/C=C/C(=O)O)CCC2(CO2)C1C1(C)OC1CC=C(C)C (stereo not drawn) on EKVX NSCLC was 436 nM

Recorded GI50 for N#CSc1c[nH]c2ccc(/C=C/C(=O)/C=C(O)/C=C/c3ccc4[nH]cc(SC#N)c4c3)cc12 on EKVX NSCLC was 1970 nM

###

- Test system: HOP-62 NSCLC
- test-summary: NCI tumour cell line growth inhibition, 48 h
outcome-measure: TGI

Memo: COc1cc2ncnc(Nc3cccc(Br)c3)c2cc1OC , reported TGI: > 41.2 µM

Memo: COC(=O)c1sc2nc(Nc3ccccc3)c(=Nc3ccccc3)sc2c1C , reported TGI: > 100 µM

Memo: [Cu].c1ccc2c(c1)C1=NC2=NC2=NC(=NC3=NC(=NC4=NC(=N1)c1ccccc14)c1ccccc13)c1ccccc12 , reported TGI: > 100 µM

Memo: CN(C)CCNc1c(O)c2c(c(O)c1Cl)C(=O)C=CC2=O , reported TGI: 3.65 µM

Memo: C[C@]12C(=O)OC[C@H](c3ccccc3)N1C(=O)N(Cc1ccccc1)[C@@H]2CO , reported TGI: > 100 µM

Memo: CCOc1ccc2c(c1)[n+]([O-])c(-c1ccccc1)c(N)[n+]2[O-] , reported TGI: > 100 µM

Memo: CN(C)c1ccc(-c2c(C#N)c(-c3ccccc3)n(NS(=O)(=O)c3ccccc3)c(=O)c2C#N)cc1 , reported TGI: > 100 µM

Memo: O=[N+]([O-])C(/C(Cl)=C(/Cl)N1CCOCC1)=C1\Nc2ccccc2O1 , reported TGI: > 100 µM

Memo: CCN(CC)CCN1C(=O)C2C3C(C)=CC(OC(C)=O)(CC3C)C2C1=O (centres undefined) , reported TGI: > 100 µM
